test system: COG-LL-319h; assay: selective drug sensitivity score (sDSS, relative to normal bone marrow) (sDSS (score)); higher = more potent and effective on the cell line relative to normal bone marrow cells; details: 72 h;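 also: ALL cell lines in 384-well plates, five doses spanning 10,000-fold, each plate scaled between vehicle and 100 µmol/L benzalkonium chloride controls, sDSS an adapted area-under-curve metric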
Values of selective drug sensitivity score greater than or equal to -0.02 map to True; values below map to False.

Consider the worked cases shown below.
Does selective drug sensitivity score meet or surpass -0.02 for CC(C)c1cc(-c2n[nH]c(=O)n2-c2ccc3c(ccn3C)c2)c(O)cc1O [Ganetespib] (top concentration 1000 nM) ?
True

Does selective drug sensitivity score meet or surpass -0.02 for COc1ccccc1S(=O)(=O)Nc1ccc2c(c1)CN(C)C(=O)N2 [PFI-1] (top concentration 30000 nM) ?
True

Does selective drug sensitivity score meet or surpass -0.02 for N#CC(c1ccnc(OCc2ccc(CN3CCOCC3)cc2)n1)c1nc2ccccc2s1 (configuration not stated) [Bentamapimod] (top concentration 10000 nM) ?
False

Does selective drug sensitivity score meet or surpass -0.02 for Sc1ncnc2nc[nH]c12 [Mercaptopurine] (top concentration 10000 nM) ?
True

More entries:
Does selective drug sensitivity score meet or surpass -0.02 for CCN(CC)CCN(Cc1ccc(-c2ccc(C(F)(F)F)cc2)cc1)C(=O)Cn1c(SCc2ccc(F)cc2)nc(=O)c2c1CCC2 [Darapladib] (top concentration 1000 nM) ?
False

Does selective drug sensitivity score meet or surpass -0.02 for O=c1[nH]c(C2CCCN2)nc2c1oc1ccc(Cl)cc12 (configuration not stated) (top concentration 10000 nM) ?
True
